The entries below are paired with their reported Dmax.
Molecular target: HiBit-BRG1 fusion protein (Homo sapiens, UniProt P51532)
Construct: expressed in transfected cells
Sequence (P51532 whole entry, the tested form may be a part): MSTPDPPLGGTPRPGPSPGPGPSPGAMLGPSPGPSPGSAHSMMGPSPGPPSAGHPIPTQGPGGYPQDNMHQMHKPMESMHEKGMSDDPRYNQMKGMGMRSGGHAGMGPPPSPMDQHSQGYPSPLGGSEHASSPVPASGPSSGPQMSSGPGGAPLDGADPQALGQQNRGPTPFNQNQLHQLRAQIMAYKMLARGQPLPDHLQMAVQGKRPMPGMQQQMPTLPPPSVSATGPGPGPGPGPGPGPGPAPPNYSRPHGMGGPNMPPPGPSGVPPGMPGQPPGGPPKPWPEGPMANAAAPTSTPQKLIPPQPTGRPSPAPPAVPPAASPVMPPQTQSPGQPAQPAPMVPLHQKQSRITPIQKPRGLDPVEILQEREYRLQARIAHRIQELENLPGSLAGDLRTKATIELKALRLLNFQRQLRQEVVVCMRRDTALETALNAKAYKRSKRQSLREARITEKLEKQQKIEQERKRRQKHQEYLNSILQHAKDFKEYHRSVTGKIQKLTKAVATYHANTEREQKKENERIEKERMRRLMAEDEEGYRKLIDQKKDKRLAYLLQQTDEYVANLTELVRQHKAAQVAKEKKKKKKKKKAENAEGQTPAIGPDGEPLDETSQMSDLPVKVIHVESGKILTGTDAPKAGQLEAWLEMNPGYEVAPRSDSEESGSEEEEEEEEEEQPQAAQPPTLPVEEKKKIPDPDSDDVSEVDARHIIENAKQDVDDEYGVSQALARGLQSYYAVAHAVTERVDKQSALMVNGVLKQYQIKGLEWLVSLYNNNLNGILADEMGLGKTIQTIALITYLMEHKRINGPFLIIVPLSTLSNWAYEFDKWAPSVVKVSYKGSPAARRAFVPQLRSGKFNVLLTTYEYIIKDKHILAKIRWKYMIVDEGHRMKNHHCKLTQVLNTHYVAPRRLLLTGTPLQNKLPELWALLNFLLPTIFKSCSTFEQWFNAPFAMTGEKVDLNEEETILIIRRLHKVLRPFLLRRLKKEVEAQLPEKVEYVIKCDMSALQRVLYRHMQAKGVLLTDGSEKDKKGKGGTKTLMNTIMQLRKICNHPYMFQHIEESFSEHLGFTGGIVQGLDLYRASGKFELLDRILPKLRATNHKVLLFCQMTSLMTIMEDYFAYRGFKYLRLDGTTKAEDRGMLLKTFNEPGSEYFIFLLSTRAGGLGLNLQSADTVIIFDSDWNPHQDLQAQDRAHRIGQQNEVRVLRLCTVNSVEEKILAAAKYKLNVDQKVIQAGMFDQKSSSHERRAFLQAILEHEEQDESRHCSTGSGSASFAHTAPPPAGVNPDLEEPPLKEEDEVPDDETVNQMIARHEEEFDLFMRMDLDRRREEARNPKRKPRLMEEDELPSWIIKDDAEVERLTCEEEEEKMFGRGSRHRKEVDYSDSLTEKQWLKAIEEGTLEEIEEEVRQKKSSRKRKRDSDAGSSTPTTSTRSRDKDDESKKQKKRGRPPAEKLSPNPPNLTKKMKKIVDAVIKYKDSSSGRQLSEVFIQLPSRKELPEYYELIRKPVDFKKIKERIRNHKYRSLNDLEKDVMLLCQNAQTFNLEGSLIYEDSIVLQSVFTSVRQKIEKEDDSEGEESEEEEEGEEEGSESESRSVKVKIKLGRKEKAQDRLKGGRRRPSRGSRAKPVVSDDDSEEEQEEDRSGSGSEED
Assay: HiBiT-BRG1 cell-based degradation assay (Nano-Glo HiBiT Lytic Detection, 24 h)
Conditions: HeLa cell line expressing HiBit-BRG1 and LgBit, read-out: BRG1 HiBit Degradation Maximum (%)
Measure: Dmax

Cc1ncsc1-c1ccc([C@H](C)NC(=O)[C@@H]2C[C@@H](O)CN2C(=O)[C@@H](c2cc(OCCN(C)CC34CC(c5cc6cc(-c7ccccc7O)nnc6[nH]5)(C3)C4)no2)C(C)C)cc1 (racemic)    > 75%
Cc1ncsc1-c1ccc(CNC(=O)[C@@H]2C[C@@H](O)CN2C(=O)[C@@H](NC(=O)CCCCCCCCCCC(=O)N2CC(c3c[nH]c4nnc(-c5ccccc5O)cc34)C2)C(C)(C)C)cc1    < 50%
Cc1ncsc1-c1ccc(CNC(=O)[C@@H]2C[C@@H](O)CN2C(=O)[C@@H](NC(=O)CCCC(=O)N2CC(c3cc4cc(-c5ccccc5O)nnc4[nH]3)C2)C(C)(C)C)cc1    > 75%
Cc1ncsc1-c1ccc([C@H](C)NC(=O)[C@@H]2C[C@@H](O)CN2C(=O)[C@@H](c2cc(OCCN3CC(c4[nH]c5nnc(-c6ccccc6O)cc5c4Cl)C3)no2)C(C)C)cc1 (racemic)    < 50%
Cc1ncsc1-c1ccc(CNC(=O)[C@@H]2C[C@@H](O)CN2C(=O)[C@@H](NCCC(=O)N2CC(c3cc4cc(-c5ccccc5O)nnc4[nH]3)C2)C(C)(C)C)cc1 (racemic)    < 50%

The origin of these recorded values is patent US20240024488A1.
